The entries below are paired with their reported MIC.
Tested on: N. gonorrhoeae WHO X
ASSAY_INFO: Liquid broth MIC in Fastidious broth
SETUP_CONDITIONS: Neisseria gonorrhoeae, read-out: Minimum Inhibitory Concentration (MIC), N. gonorrhoeae WHO X

- COMPOUND: "CS(=O)(=O)NC(C(=O)N[C@H]1Cc2cccc(C(=O)O)c2OB1O)c1ccc(P(=O)(O)O)cc1 (stereo partly shown) [Example 59]"
  SYSTEM_UNDER_TEST: "N. gonorrhoeae WHO X"
  MIC: "16 to 32 µg/mL"
- COMPOUND: "CCN1CCN(C(=O)N[C@H](C(=O)N[C@H]2Cc3ccc(F)c(C(=O)O)c3OB2O)c2ccc(P(=O)(O)O)cc2)C(=O)C1=O (single isomer, unassigned) [Example 9]"
  SYSTEM_UNDER_TEST: "N. gonorrhoeae WHO X"
  MIC: "1 to 2 µg/mL"
- COMPOUND: "O=C(NCCN1CCN(C(=O)NC(C(=O)N[C@H]2Cc3ccc(F)c(C(=O)O)c3OB2O)c2cc(F)c(O)c(O)c2Cl)C(=O)C1=O)c1nccs1 (stereo partly shown) [Example 218]"
  SYSTEM_UNDER_TEST: "N. gonorrhoeae WHO X"
  MIC: "> 64 µg/mL"
- COMPOUND: "NCCN1CCN(C(=O)NC(C(=O)N[C@H]2Cc3cccc(C(=O)O)c3OB2O)c2ccc(P(=O)(O)O)cc2)C(=O)C1=O (stereo partly shown) [Example 3]"
  SYSTEM_UNDER_TEST: "N. gonorrhoeae WHO X"
  MIC: "4 to 8 µg/mL"
- COMPOUND: "N[C@@H](C(=O)N[C@H]1Cc2cccc(C(=O)O)c2OB1O)c1ccc(P(=O)(O)O)cc1 (single isomer, unassigned) [Example 171]"
  SYSTEM_UNDER_TEST: "N. gonorrhoeae WHO X"
  MIC: "> 64 µg/mL"

N. gonorrhoeae WHO X assay, compound CS(=O)(=O)N1CCC[C@H]1C(=O)N[C@H](C(=O)N[C@H]1Cc2cccc(C(=O)O)c2OB1O)c1ccc(P(=O)(O)O)cc1 [Example 43] , recorded MIC = 16 to 32 µg/mL

----------
Listed here: items and their measured MIC.
System: A. baumannii CDC-0033
ASSAY_INFO: microbe, parasite or virus in culture
Format: cell-based
SETUP_CONDITIONS: Acinetobacter baumannii, CDC0033, read-out: MIC, A. baumannii CDC-0033

Before answering, review these 5 worked examples.
- MOLECULE: "O=C(NCCS(=O)(=O)N1CCN(C(=O)NC(C(=O)N[C@H]2Cc3ccc(F)c(C(=O)O)c3OB2O)c2cc(F)c(O)c(O)c2Cl)C1=O)c1cccnc1 (stereo partly shown)"
  READOUT: "MIC"
  REPORTED: "2 to 4 µg/mL"
- MOLECULE: "O=C(NCCN1CCN(C(=O)NC(C(=O)N[C@H]2Cc3ccc(F)c(C(=O)O)c3OB2O)c2cc(F)c(O)c(O)c2Cl)C(=O)C1=O)Nc1ccc(O)cc1 (stereo partly shown)"
  READOUT: "MIC"
  REPORTED: "8 to 16 µg/mL"
- MOLECULE: "O=C(NCCS(=O)(=O)N1CCN(C(=O)NC(C(=O)N[C@H]2Cc3ccc(F)c(C(=O)O)c3OB2O)c2cc(F)c(O)c(O)c2Cl)C1=O)Nc1ccc(O)cc1 (stereo partly shown)"
  READOUT: "MIC"
  REPORTED: "2 to 4 µg/mL"
- MOLECULE: "Cc1cc(C(=O)NCCCN2CCN(C(=O)N[C@@H](C(=O)N[C@H]3Cc4ccc(F)c(C(=O)O)c4OB3O)c3cc(F)c(O)c(O)c3Cl)C(=O)C2=O)ccn1"
  READOUT: "MIC"
  REPORTED: "2 to 4 µg/mL"
- MOLECULE: "O=C(NCCCN1CCN(C(=O)NC(C(=O)N[C@H]2Cc3ccc(F)c(C(=O)O)c3OB2O)c2cc(F)c(O)c(O)c2Cl)C(=O)C1=O)c1cc(O)c(F)c(O)c1 (stereo partly shown)"
  READOUT: "MIC"
  REPORTED: "2 to 4 µg/mL"

O=C(O)c1c(F)ccc2c1OB(O)[C@@H](NC(=O)[C@H](NC(=O)N1CCN(C3CCN(C(=O)c4cc(O)c(F)c(O)c4)CC3)C1=O)c1cc(F)c(O)c(O)c1Cl)C2 (single isomer, unassigned) yielded MIC of < 1 µg/mL

Input "O=C(O)c1c(F)ccc2c1OB(O)[C@@H](NC(=O)[C@H](NC(=O)N1CCN(Cc3ccc(O)c(O)c3Cl)C(=O)C1=O)c1ccc(P(=O)(O)O)c(F)c1F)C2" . Output MIC: < 1 µg/mL

# MIC (molecule: "O=C(NCCS(=O)(=O)N1CCN(C(=O)N[C@@H](C(=O)N[C@H]2Cc3ccc(F)c(C(=O)O)c3OB2O)c2cc(F)c(O)c(O)c2Cl)C1=O)c1nccs1" ) is < 1 µg/mL

MIC for O=C(O)c1c(F)ccc2c1OB(O)[C@@H](NC(=O)[C@H](NC(=O)N1CCN(C3CCN(C(=O)c4cc(F)c(F)c(O)c4F)CC3)C1=O)c1cc(F)c(O)c(O)c1Cl)C2 (single isomer, unassigned) is < 1 µg/mL

Sure, the documented MIC for O=C(O)c1c(F)ccc2c1OB(O)[C@@H](NC(=O)C(NC(=O)N1CCN(C3CCN(C(=O)c4cccc(O)c4)CC3)C(=O)C1=O)c1cc(F)c(O)c(O)c1Cl)C2 (stereo partly shown) is 2 to 4 µg/mL
